Target: E. granulosus PSC Gp (EgGps: EgGp1 and EgGp2)
Construct: native enzyme in protoscolex homogenate, not purified; band at 96 kD; MN562583 = EgGp1, MN562584 = EgGp2; EgrG_000501500.1 is printed for Gp without saying which gene
Assay: glycogen degradation coupled to phosphoglucomutase and glucose-6-phosphate dehydrogenase, NADPH at […] nm
Assay type: biochemical, Echinococcus granulosus
Conditions: protoscolex homogenate; 2 mg/ml glycogen, 1 mM AMP, 5 mM MgCl2, Tris-HCl, 25 °C; 2 min pre-incubation; read-out: IC50/LC50 (μM) / Gp / E. granulosus PSC
reported_metric: IC50 (µM)

{"columns": ["molecule", "target_of_assay", "reported_metric", "relation", "numeric_result"],
 "data": [
  ["OC(c1cc(C(F)(F)F)nc2c(C(F)(F)F)cccc12)C1CCCCN1 (centres unmarked) [MEF, mefloquine]", "E. granulosus PSC Gp (EgGps: EgGp1 and EgGp2)", "IC50", "=", 128],
  ["C[C@H]1[C@H](C)CC[C@]2(C(=O)O)CC[C@]3(C)C(=CC[C@@H]4[C@@]5(C)CC[C@H](O)C(C)(C)[C@@H]5CC[C@]43C)[C@H]12 [UA, ursolic acid]", "E. granulosus PSC Gp (EgGps: EgGp1 and EgGp2)", "IC50", ">", 438]
]}
